# Test system: EMC-BAC-2
# test_protocol: relative viability (nuclei count vs DMSO), 5 days (fraction); higher = more cells survive
# condition_notes: first compound 0.04 µM
parameter: relative viability
Numbers only.

Check out these entries, answers already filled in.
molecule	recorded_number
O=C(O)c1ccc(-c2c[nH]c3ncc(-c4ccccc4)cc23)cc1C1CCCC1 + C[C@]1(O)C[C@@H](c2nc(-c3ccc4ccc(-c5ccccc5)nc4c3)c3c(N)nccn32)C1 [Linsitinib] (partner 1 µM)	0.823
O=C(O)c1ccc(-c2c[nH]c3ncc(-c4ccccc4)cc23)cc1C1CCCC1 + Nc1ncn([C@H]2C[C@H](O)[C@@H](CO)O2)c(=O)n1 [Decitabine] (partner 2 µM)	0.948

From here, focus on the item given below.
## Task I'd like to know its relative viability. The molecule in question is O=C(O)c1ccc(-c2c[nH]c3ncc(-c4ccccc4)cc23)cc1C1CCCC1 + CC(=O)c1c(C)c2cnc(Nc3ccc(N4CCNCC4)cn3)nc2n(C2CCCC2)c1=O [Palbociclib] (partner 0.5 µM)
## Result 0.534

* * *

# System: ChaGo-K-1
# test_protocol: relative viability (nuclei count vs DMSO), 5 days (fraction); higher = more cells survive
# condition_notes: first compound 0.005 µM
parameter: relative viability
One number for each entry.

Worked cases, relative viability given:
compound	relative viability
CC1(C)CCC(c2ccc(Cl)cc2)=C(CN2CCN(c3ccc(C(=O)NS(=O)(=O)c4ccc(N[C@H](CCN5CCOCC5)CSc5ccccc5)c(S(=O)(=O)C(F)(F)F)c4)cc3)CC2)C1 [Navitoclax] + N=C(N)NC(=N)NCCc1ccccc1 [Phenformin] (partner 250 µM)	0.459
CC1(C)CCC(c2ccc(Cl)cc2)=C(CN2CCN(c3ccc(C(=O)NS(=O)(=O)c4ccc(N[C@H](CCN5CCOCC5)CSc5ccccc5)c(S(=O)(=O)C(F)(F)F)c4)cc3)CC2)C1 [Navitoclax] + Cc1nc(Nc2ncc(C(=O)Nc3c(C)cccc3Cl)s2)cc(N2CCN(CCO)CC2)n1 [Dasatinib] (partner 0.075 µM)	0.479
CC1(C)CCC(c2ccc(Cl)cc2)=C(CN2CCN(c3ccc(C(=O)NS(=O)(=O)c4ccc(N[C@H](CCN5CCOCC5)CSc5ccccc5)c(S(=O)(=O)C(F)(F)F)c4)cc3)CC2)C1 [Navitoclax] + COc1cccc2cc(-c3nc([C@H]4CC[C@H](C(=O)O)CC4)n4ncnc(N)c34)[nH]c12 [OSI-027] (partner 0.5 µM)	0.548
CC1(C)CCC(c2ccc(Cl)cc2)=C(CN2CCN(c3ccc(C(=O)NS(=O)(=O)c4ccc(N[C@H](CCN5CCOCC5)CSc5ccccc5)c(S(=O)(=O)C(F)(F)F)c4)cc3)CC2)C1 [Navitoclax] + CC(=O)Nc1cccc(-n2c(=O)n(C3CC3)c(=O)c3c(Nc4ccc(I)cc4F)n(C)c(=O)c(C)c32)c1 [Trametinib] (partner 0.02 µM)	0.812

From here, focus on the item given below.
## Task Data request, read-out relative viability, for CC1(C)CCC(c2ccc(Cl)cc2)=C(CN2CCN(c3ccc(C(=O)NS(=O)(=O)c4ccc(N[C@H](CCN5CCOCC5)CSc5ccccc5)c(S(=O)(=O)C(F)(F)F)c4)cc3)CC2)C1 [Navitoclax] + Nc1nc2[nH]cc(CCc3ccc(C(=O)N[C@@H](CCC(=O)O)C(=O)O)cc3)c2c(=O)[nH]1 [Pemetrexed] (partner 0.2 µM)
## Result 0.258

* * *

# Test system: NCI-H647
# test_protocol: relative viability (nuclei count vs DMSO), 5 days (fraction); higher = more cells survive
# condition_notes: first compound 0.4 µM
parameter: relative viability

Examples with their reported relative viability follow.
molecule	relative viability
O=C(O)c1ccc(-c2c[nH]c3ncc(-c4ccccc4)cc23)cc1C1CCCC1 + COc1cc2c(Oc3ccc(NC(=O)C4(C(=O)Nc5ccc(F)cc5)CC4)cc3F)ccnc2cc1OCCCN1CCOCC1 [Foretinib] (partner 0.25 µM)	1.14
O=C(O)c1ccc(-c2c[nH]c3ncc(-c4ccccc4)cc23)cc1C1CCCC1 + CC(=O)Nc1cccc(-n2c(=O)n(C3CC3)c(=O)c3c(Nc4ccc(I)cc4F)n(C)c(=O)c(C)c32)c1 [Trametinib] (partner 0.02 µM)	0.478
O=C(O)c1ccc(-c2c[nH]c3ncc(-c4ccccc4)cc23)cc1C1CCCC1 + CC1(C)CCC(c2ccc(Cl)cc2)=C(CN2CCN(c3ccc(C(=O)NS(=O)(=O)c4ccc(N[C@H](CCN5CCOCC5)CSc5ccccc5)c(S(=O)(=O)C(F)(F)F)c4)cc3)CC2)C1 [Navitoclax] (partner 0.5 µM)	1.04

Now turn to the next molecule.
## Task Test system NCI-H647; read-out relative viability; what value for O=C(O)c1ccc(-c2c[nH]c3ncc(-c4ccccc4)cc23)cc1C1CCCC1 + Cc1nc(Nc2ncc(C(=O)Nc3c(C)cccc3Cl)s2)cc(N2CCN(CCO)CC2)n1 [Dasatinib] (partner 0.075 µM) ?
## Result 0.178

* * *

Provide the recorded relative viability for the entries that follow.
# Tested on: NCI-H650
# test_protocol: relative viability (nuclei count vs DMSO), 5 days (fraction); higher = more cells survive
# condition_notes: first compound 0.1581 µM

Field: relative viability. Fill in for each record below.
1. CC1(C)CCC(c2ccc(Cl)cc2)=C(CN2CCN(c3ccc(C(=O)NS(=O)(=O)c4ccc(N[C@H](CCN5CCOCC5)CSc5ccccc5)c(S(=O)(=O)C(F)(F)F)c4)cc3)CC2)C1 [Navitoclax] + CC(=O)Nc1cccc(-n2c(=O)n(C3CC3)c(=O)c3c(Nc4ccc(I)cc4F)n(C)c(=O)c(C)c32)c1 [Trametinib] (partner 0.02 µM)
2. CC1(C)CCC(c2ccc(Cl)cc2)=C(CN2CCN(c3ccc(C(=O)NS(=O)(=O)c4ccc(N[C@H](CCN5CCOCC5)CSc5ccccc5)c(S(=O)(=O)C(F)(F)F)c4)cc3)CC2)C1 [Navitoclax] + NC(=O)Nc1cc(-c2cccc(F)c2)sc1C(=O)N[C@H]1CCCNC1 [AZD7762] (partner 0.2 µM)
3. CC1(C)CCC(c2ccc(Cl)cc2)=C(CN2CCN(c3ccc(C(=O)NS(=O)(=O)c4ccc(N[C@H](CCN5CCOCC5)CSc5ccccc5)c(S(=O)(=O)C(F)(F)F)c4)cc3)CC2)C1 [Navitoclax] + N=C(N)NC(=N)NCCc1ccccc1 [Phenformin] (partner 250 µM)

## Result
1.09
0.801
0.456

* * *

Please go through the items and note down their relative viability.
# System: BEN
# test_protocol: relative viability (nuclei count vs DMSO), 5 days (fraction); higher = more cells survive
# condition_notes: first compound 1 µM
Numbers only.

compound	relative viability
NC(=O)Nc1cc(-c2cccc(F)c2)sc1C(=O)N[C@H]1CCCNC1 [AZD7762] + CC1(C)CCC(c2ccc(Cl)cc2)=C(CN2CCN(c3ccc(C(=O)NS(=O)(=O)c4ccc(N[C@H](CCN5CCOCC5)CSc5ccccc5)c(S(=O)(=O)C(F)(F)F)c4)cc3)CC2)C1 [Navitoclax] (partner 0.5 µM)	0.0695

Next item in the queue.
## Task Please tell me: relative viability of NC(=O)Nc1cc(-c2cccc(F)c2)sc1C(=O)N[C@H]1CCCNC1 [AZD7762] + Cc1nc(Nc2ncc(C(=O)Nc3c(C)cccc3Cl)s2)cc(N2CCN(CCO)CC2)n1 [Dasatinib] (partner 0.075 µM) , system BEN?
## Result 0.328

* * *

# System: HARA
# test_protocol: relative viability (nuclei count vs DMSO), 5 days (fraction); higher = more cells survive
# condition_notes: first compound 0.253 µM
relative viability vs 0.4: less than gives 1; not less than gives -1.

molecule	label_value
Oc1nc(-c2ccc(C(F)(F)F)cc2)nc2c1CSCC2 [XAV939] + C[C@]1(O)C[C@@H](c2nc(-c3ccc4ccc(-c5ccccc5)nc4c3)c3c(N)nccn32)C1 [Linsitinib] (partner 1 µM)	-1

## Task relative viability strictly < 0.4 for this molecule? C=C1C(=O)O[C@@H](CCCCCCCC)[C@@H]1C(=O)O [C-75] + Cc1nc(Nc2ncc(C(=O)Nc3c(C)cccc3Cl)s2)cc(N2CCN(CCO)CC2)n1 [Dasatinib] (partner 0.075 µM)
## Result 1

## Task Hi there! Is relative viability for Oc1nc(-c2ccc(C(F)(F)F)cc2)nc2c1CSCC2 [XAV939] + Cc1nc(NC(=O)N2CCC[C@H]2C(N)=O)sc1-c1ccnc(C(C)(C)C(F)(F)F)c1 [Alpelisib] (partner 2 µM) below 0.4, do you know?
## Result -1

## Task # strict comparison: is reported relative viability < 0.4? input = C=C1C(=O)O[C@@H](CCCCCCCC)[C@@H]1C(=O)O [C-75] + O=C(c1cc(Cc2n[nH]c(=O)c3ccccc23)ccc1F)N1CCN(C(=O)C2CC2)CC1 [Olaparib] (partner 8 µM)
## Result -1

## Task Strictly below 0.4: is that where relative viability of C=C1C(=O)O[C@@H](CCCCCCCC)[C@@H]1C(=O)O [C-75] + Nc1ncn([C@H]2C[C@H](O)[C@@H](CO)O2)c(=O)n1 [Decitabine] (partner 2 µM) sits?
## Result -1
